Data origin, for the record: paper PMC5896380

Tested Target: cathepsin B (Homo sapiens, UniProt P07858)
Construct: made in house
Measurement Notes: Kinetic parameters of ACC substrates with cathepsin B
Assay type: biochemical
Measurement Parameters: Fig. 5B; pH 5.5, 37 °C; cathepsin B 4–15 nM; triplicate, SD below 15%
Non-standard residues stand in square brackets, D forms with d. *: point of attachment. Phe(F5) = N[C@@H](Cc1c(F)c(F)c(F)c(F)c1F)C(=O)O; ACC = NC(=O)Cc1cc(=O)oc2cc(N*)ccc12; Bn = c1ccc(C*)cc1
Measure Name: kcat/KM Cath-B (M⁻¹ s⁻¹)

INSERT INTO results (substance, measure_name, value) VALUES
  ('Ac-H[dL][Phe(F5)]R-{ACC} (SMILES CC(=O)N[C@@H](Cc1c[nH]cn1)C(=O)N[C@H](CC(C)C)C(=O)N[C@@H](Cc1c(F)c(F)c(F)c(F)c1F)C(=O)N[C@@H](CCCNC(=N)N)C(=O)Nc1ccc2c(CC(N)=O)cc(=O)oc2c1)', 'kcat/KM Cath-B', 135),
  ('Ac-H[dV]T(Bn)R-{ACC} (SMILES CC(=O)N[C@@H](Cc1c[nH]cn1)C(=O)N[C@@H](C(=O)N[C@H](C(=O)N[C@@H](CCCNC(=N)N)C(=O)Nc1ccc2c(CC(N)=O)cc(=O)oc2c1)[C@@H](C)OCc1ccccc1)C(C)C)', 'kcat/KM Cath-B', 480);
